# Test system: Streptococcus pyogenes SSI-9
# TEST NAME: Antibacterial activity assay of bead-derived peptides (three concentrations)
# Assay type: cell-based
# Set-up: key: +++: inhibition by the 640-fold diluted peptide solution; ++: inhibition by the 160-fold diluted solution; +: inhibition by the 40-fold diluted solution; -: no inhibition
# SETTINGS: S. pyogenes, bead-derived peptide solution, three concentrations
# Method: Each type of assay must be simplified and miniaturized to assess the activities of the library peptides in a 96-well format for the high-throughput screening. Next, the peptides in groups A and B were subjected to the antibacterial assay and structural determination. Three peptide concentrations were applied to evaluate the growth inhibition of S. pyogenes and determine the antibacterial activity. […] Finally, the structures of the peptides were determined. […]
Where a SMILES comes first, the peptide text is derived from it. [ ]: non-standard residue; d: D form. The star is where a group is joined. NHCH2CH2OH = OCCN*; For = O=C*
MEASUREMENT TYPE: antibacterial activity

COMPOUND	MEASURED ON	MEASUREMENT TYPE	MEASURED
CNC(=O)C[C@@H](NC(=O)[C@@H](NC(=O)[C@@H](CC(C)C)NC(=O)[C@H](C)NC(=O)[C@H](NC(=O)[C@H](C)NC(=O)CNC(=O)[C@@H](NC=O)C(C)C)C(C)C)C(C)C)C(=O)N[C@@H](Cc1c[nH]c2ccccc12)C(=O)N[C@H](CC(C)C)C(=O)N[C@@H](Cc1c[nH]c2ccccc12)C(=O)N[C@H](CC(C)C)C(=O)N[C@@H](Cc1c[nH]c2ccccc12)C(=O)N[C@@H](C(=O)N[C@@H](Cc1c[nH]c2ccccc12)C(=O)NCCO)C(C)C [compound 3800] (For-VGA[dV]A[dL]V[dD](NHMe)W[dL]W[dL]W[dV]W-NHCH2CH2OH)	Streptococcus pyogenes SSI-9	antibacterial activity	-
CC(C)C[C@@H](NC(=O)[C@H](C)NC(=O)[C@H](NC(=O)[C@H](C)NC(=O)CNC(=O)[C@@H](NC=O)C(C)C)C(C)C)C(=O)N[C@H](C(=O)N[C@H](CC(C)C)C(=O)N[C@@H](Cc1c[nH]c2ccccc12)C(=O)N[C@H](CC(C)C)C(=O)N[C@@H](Cc1c[nH]c2ccccc12)C(=O)N[C@@H](C(=O)N[C@@H](Cc1c[nH]c2ccccc12)C(=O)N[C@@H](C(=O)N[C@@H](Cc1c[nH]c2ccccc12)C(=O)NCCO)[C@H](C)O)C(C)C)C(C)C [compound 3828] (For-VGA[dV]A[dL]V[dL]W[dL]W[dV]W[dT]W-NHCH2CH2OH)	Streptococcus pyogenes SSI-9	antibacterial activity	+

###

viability: recorded values
# SETTINGS: cell viability/%
Where a SMILES comes first, the peptide text is derived from it. [ ]: non-standard residue; d: D form. The star is where a group is joined. NHCH2CH2OH = OCCN*; For = O=C*

COMPOUND	viability / %
CC(C)C[C@@H](NC(=O)[C@H](C)NC(=O)[C@H](NC(=O)[C@H](C)NC(=O)CNC(=O)[C@@H](NC=O)C(C)C)[C@H](C)O)C(=O)N[C@H](C(=O)N[C@@H](C(=O)N[C@@H](Cc1c[nH]c2ccccc12)C(=O)N[C@@H](C(=O)N[C@@H](Cc1c[nH]c2ccccc12)C(=O)N[C@@H](C(=O)N[C@@H](Cc1c[nH]c2ccccc12)C(=O)N[C@H](CC(C)C)C(=O)N[C@@H](Cc1c[nH]c2ccccc12)C(=O)NCCO)C(C)C)[C@H](C)O)C(C)C)C(C)C [compound 7225] (For-VGA[dT]A[dL]V[dV]W[dT]W[dV]W[dL]W-NHCH2CH2OH)	100
CC(C)C[C@@H](NC(=O)[C@H](C)NC(=O)CNC(=O)[C@@H](NC=O)C(C)C)C(=O)N[C@@H](C)C(=O)N[C@@H](C(=O)N[C@H](C(=O)N[C@H](CC(C)C)C(=O)N[C@@H](Cc1c[nH]c2ccccc12)C(=O)N[C@@H](C(=O)N[C@@H](Cc1c[nH]c2ccccc12)C(=O)N[C@@H](C(=O)N[C@@H](Cc1c[nH]c2ccccc12)C(=O)N[C@@H](C(=O)N[C@@H](Cc1c[nH]c2ccccc12)C(=O)NCCO)[C@H](C)O)C(C)C)C(C)C)C(C)C)C(C)C [compound 11625] (For-VGA[dL]A[dV]V[dL]W[dV]W[dV]W[dT]W-NHCH2CH2OH)	100

###

# Tested on: Streptococcus pyogenes SSI-9
# TEST NAME: Antibacterial activity assay of bead-derived peptides (three concentrations)
# Type: cell-based
# Design: key: +++: inhibition by the 640-fold diluted peptide solution; ++: inhibition by the 160-fold diluted solution; +: inhibition by the 40-fold diluted solution; -: no inhibition
# SETTINGS: S. pyogenes, bead-derived peptide solution, three concentrations
Where a SMILES comes first, the peptide text is derived from it. [ ]: non-standard residue; d: D form. The star is where a group is joined. NHCH2CH2OH = OCCN*; For = O=C*
MEASUREMENT TYPE: antibacterial activity

MOLECULE	MEASUREMENT TYPE	MEASURED
CC(C)C[C@@H](NC(=O)[C@H](C)NC(=O)CNC(=O)[C@@H](NC=O)C(C)C)C(=O)N[C@@H](C)C(=O)N[C@@H](C(=O)N[C@H](C(=O)N[C@@H](C(=O)N[C@@H](Cc1c[nH]c2ccccc12)C(=O)N[C@@H](C(=O)N[C@@H](Cc1c[nH]c2ccccc12)C(=O)N[C@@H](C(=O)N[C@@H](Cc1c[nH]c2ccccc12)C(=O)N[C@H](CC(C)C)C(=O)N[C@@H](Cc1c[nH]c2ccccc12)C(=O)NCCO)C(C)C)C(C)C)C(C)C)C(C)C)C(C)C [compound 5056] (For-VGA[dL]A[dV]V[dV]W[dV]W[dV]W[dL]W-NHCH2CH2OH)	antibacterial activity	+
CNC(=O)C[C@@H](NC(=O)[C@@H](NC(=O)[C@@H](CC(C)C)NC(=O)[C@H](C)NC(=O)[C@@H](CC(C)C)NC(=O)[C@H](C)NC(=O)CNC(=O)[C@@H](NC=O)C(C)C)C(C)C)C(=O)N[C@@H](Cc1c[nH]c2ccccc12)C(=O)N[C@H](CC(C)C)C(=O)N[C@@H](Cc1c[nH]c2ccccc12)C(=O)N[C@H](CC(C)C)C(=O)N[C@@H](Cc1c[nH]c2ccccc12)C(=O)N[C@H](CC(C)C)C(=O)N[C@@H](Cc1c[nH]c2ccccc12)C(=O)NCCO [compound 1400] (For-VGA[dL]A[dL]V[dD](NHMe)W[dL]W[dL]W[dL]W-NHCH2CH2OH)	antibacterial activity	-

###

# Tested on: Streptococcus pyogenes SSI-9
# TEST NAME: Antibacterial activity assay of bead-derived peptides (three concentrations)
# Assay type: cell-based
# Parameters: key: +++: inhibition by the 640-fold diluted peptide solution; ++: inhibition by the 160-fold diluted solution; +: inhibition by the 40-fold diluted solution; -: no inhibition
# SETTINGS: S. pyogenes, bead-derived peptide solution, three concentrations
Where a SMILES comes first, the peptide text is derived from it. [ ]: non-standard residue; d: D form. The star is where a group is joined. NHCH2CH2OH = OCCN*; For = O=C*

COMPOUND	antibacterial activity
CNC(=O)C[C@@H](NC(=O)[C@H](Cc1c[nH]c2ccccc12)NC(=O)[C@H](NC(=O)[C@H](Cc1c[nH]c2ccccc12)NC(=O)[C@@H](CC(C)C)NC(=O)[C@H](Cc1c[nH]c2ccccc12)NC(=O)[C@@H](CC(C)C)NC(=O)[C@@H](NC(=O)[C@@H](CC(C)C)NC(=O)[C@H](C)NC(=O)[C@H](NC(=O)[C@H](C)NC(=O)CNC(=O)[C@@H](NC=O)C(C)C)C(C)C)C(C)C)C(C)C)C(=O)N[C@@H](Cc1c[nH]c2ccccc12)C(=O)NCCO [compound 7334] (For-VGA[dV]A[dL]V[dL]W[dL]W[dV]W[dD](NHMe)W-NHCH2CH2OH)	-

###

# Test system: P388 mouse leukemia cells
# SETTINGS: 92 h
Where a SMILES comes first, the peptide text is derived from it. [ ]: non-standard residue; d: D form. The star is where a group is joined. NHCH2CH2OH = OCCN*; For = O=C*

MOLECULE	MEASURED ON	cell viability/% (%)
CC(C)C[C@@H](NC(=O)[C@H](Cc1c[nH]c2ccccc12)NC(=O)[C@H](NC(=O)[C@H](Cc1c[nH]c2ccccc12)NC(=O)[C@@H](CC(C)C)NC(=O)[C@@H](NC(=O)[C@H](NC(=O)[C@H](C)NC(=O)[C@H](NC(=O)[C@H](C)NC(=O)CNC(=O)[C@@H](NC=O)C(C)C)[C@H](C)O)C(C)C)C(C)C)C(C)C)C(=O)N[C@@H](Cc1c[nH]c2ccccc12)C(=O)N[C@@H](C(=O)N[C@@H](Cc1c[nH]c2ccccc12)C(=O)NCCO)C(C)C [compound 11238] (For-VGA[dT]A[dV]V[dL]W[dV]W[dL]W[dV]W-NHCH2CH2OH)	P388 mouse leukemia cells	64.7

Value source: paper PMC7531004
